# System under test: Na^+ /H^+ Exchanger (Homo sapiens)
# Construct: Human Intestinal Cancer Cells (HT-29); endogenous in cells
# Sequence (P19634 whole entry): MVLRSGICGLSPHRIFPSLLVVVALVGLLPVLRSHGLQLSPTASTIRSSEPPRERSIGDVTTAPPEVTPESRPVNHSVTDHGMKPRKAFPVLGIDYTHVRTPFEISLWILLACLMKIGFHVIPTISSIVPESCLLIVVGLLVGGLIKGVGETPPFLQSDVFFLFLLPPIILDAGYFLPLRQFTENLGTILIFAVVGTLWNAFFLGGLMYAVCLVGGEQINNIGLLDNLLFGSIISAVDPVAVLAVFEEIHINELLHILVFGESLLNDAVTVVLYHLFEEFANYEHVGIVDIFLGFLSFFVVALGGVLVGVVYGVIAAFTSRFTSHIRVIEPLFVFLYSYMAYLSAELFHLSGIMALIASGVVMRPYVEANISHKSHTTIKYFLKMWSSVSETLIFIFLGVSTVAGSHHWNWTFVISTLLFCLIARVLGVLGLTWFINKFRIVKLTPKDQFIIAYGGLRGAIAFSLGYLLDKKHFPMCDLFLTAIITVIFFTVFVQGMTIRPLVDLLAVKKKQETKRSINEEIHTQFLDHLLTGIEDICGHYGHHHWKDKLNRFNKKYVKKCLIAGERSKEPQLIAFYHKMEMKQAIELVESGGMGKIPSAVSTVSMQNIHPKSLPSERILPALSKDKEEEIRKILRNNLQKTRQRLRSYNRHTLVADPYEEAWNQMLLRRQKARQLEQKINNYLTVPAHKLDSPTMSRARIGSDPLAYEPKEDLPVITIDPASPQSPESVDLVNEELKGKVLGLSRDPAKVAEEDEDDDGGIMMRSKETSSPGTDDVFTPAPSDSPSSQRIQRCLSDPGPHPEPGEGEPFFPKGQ
# Protocol: Inhibition of the Na^+ /H^+ Exchanger in Human Intestinal Cancer Cells (HT-29)
# Test parameters: HT-29 cells; BCECF fluorescence, cytoplasmic pH; 4 minutes at 37° C., pH 7.0
# Protocol: Inhibition of the Na^+ /H^+ Exchanger in Human Intestinal Cancer Cells (HT-29): HT-29 cells were incubated in growth medium at 37° C., 5% CO2. […] The cells were incubated for 4 minutes at 37° C. without CO2 and measured by fluorimetry (CytoFluor 2350). The fluorescence of the dye BCECF was measured at the excitation wavelengths of 485 nm (pH sensitive) and 440 nm (non pH-sensitive) and at the emission wavelength of 530 nm. […]
Readout type: IC50 (nM)

What value of measured IC50 is listed for CS(=O)(=O)c1cc(C(=O)N=C(N)N)ccc1N1CCN(C(=O)c2ccco2)CC1 [Example 3] ?
29

P. CS(=O)(=O)c1cc(C(=O)N=C(N)N)ccc1N1CCN(C(=O)c2cccs2)CC1 [Example 4]
Q. CN(C)CCN1CCN(c2ccc(C(=O)N=C(N)N)cc2S(C)(=O)=O)CC1 [Example 1]
Returns: the label, P or Q , whose recorded IC50 is the lower number. Write the label of whichever entry you select.
P
